experiment: Single dose oral pharmacokinetic study; format: in vivo, mice; settings: mouse, plasma; Mice oral PK @30 mg/kg (Table 4)
Entries annotated with measured AUC(0-t)
Write down the numeric answer in µg·h/mL and omit the unit.

Consider the reported AUC(0-t) for these compounds:
{"compound": "C=C(C)[C@@H]1CC[C@]2(C(=O)N3CCC[C@H]3c3ncc(-c4ccc(F)cc4)[nH]3)CC[C@]3(C)[C@H](CC[C@@H]4[C@@]5(C)CC[C@H](OC(=O)C6CC(C(=O)O)C6(C)C)C(C)(C)[C@@H]5CC[C@]43C)[C@@H]12 (stereo partly drawn)", "AUC(0-t) [µg·h/mL]": 410}
{"compound": "CC(C)(CC(=O)O[C@H]1CC[C@]2(C)[C@H]3CC[C@@H]4[C@H]5[C@H](C6(C)CC6)CC[C@]5(C(=O)N5CCC[C@H]5c5ncc(-c6cccs6)[nH]5)CC[C@@]4(C)[C@]3(C)CC[C@H]2C1(C)C)C(=O)O", "AUC(0-t) [µg·h/mL]": 110}

Then this compound:
Ask: Assign AUC(0-t) to the following record: CC(C)(CC(=O)O[C@H]1CC[C@]2(C)[C@H]3CC[C@@H]4[C@H]5[C@H](C6(C)CC6)CC[C@]5(C(=O)N5CCC[C@H]5c5ncc(-c6ccc(F)cc6)[nH]5)CC[C@@]4(C)[C@]3(C)CC[C@H]2C1(C)C)C(=O)O
Result: 88.7

---

assay: Single dose oral pharmacokinetic study; format: in vivo, mice; details: mouse, plasma; Mice oral PK @30 mg/kg (Table 4)
measured quantity: AUC(0-inf) (µg·h/mL)
Just the number please, in µg·h/mL, no unit attached.

Ask: Hello, please tell me recorded AUC(0-inf) for this one: CC(C)(CC(=O)O)CC(=O)O[C@H]1CC[C@]2(C)[C@H]3CC[C@@H]4[C@H]5[C@H](C6(C)CC6)CC[C@]5(C(=O)N5CCCC5c5ncc(-c6cccnc6)[nH]5)CC[C@@]4(C)[C@]3(C)CC[C@H]2C1(C)C (stereo partly shown)
Result: 145

Ask: Please report the measured AUC(0-inf) for CC(C)(CC(=O)O[C@H]1CC[C@]2(C)[C@H]3CC[C@@H]4[C@H]5[C@H](C6(C)CC6)CC[C@]5(C(=O)N5CCC[C@H]5c5ncc(-c6cccs6)[nH]5)CC[C@@]4(C)[C@]3(C)CC[C@H]2C1(C)C)C(=O)O
Result: 119

Ask: // fetch AUC(0-inf) given entry CC(C)(CC(=O)O[C@H]1CC[C@]2(C)[C@H]3CC[C@@H]4[C@H]5[C@H](C6(C)CC6)CC[C@]5(C(=O)N5CCC[C@H]5c5ncc(-c6cccnc6)[nH]5)CC[C@@]4(C)[C@]3(C)CC[C@H]2C1(C)C)C(=O)O
Result: 57.8

Ask: Specify measured AUC(0-inf) for C=C(C)[C@@H]1CC[C@]2(C(=O)N3CCC[C@H]3c3ncc(-c4ccc(F)cc4)[nH]3)CC[C@]3(C)[C@H](CC[C@@H]4[C@@]5(C)CC[C@H](OC(=O)CC(C)(C)C(=O)O)C(C)(C)[C@@H]5CC[C@]43C)[C@@H]12 .
Result: 263

---

tested on: HIV-1 strain 92HT599; assay: Antiviral activity: p24 estimation in MT2 cells infected with HIV-1 strain 92HT599; assay type: cell-based; settings: Human immunodeficiency virus 1, 1000 nM, HIV-1 92HT599, p24, ~96 hours
Documented inhibition at 1 µM across a set of molecules
Kindly answer with a numeric value in %, unit omitted.

Reference set, count: 3
{"molecule": "C=C(C)[C@@H]1CC[C@]2(C(=O)N3CCC[C@H]3c3ncc(-c4ccccc4)[nH]3)CC[C@]3(C)[C@H](CC[C@@H]4[C@@]5(C)CC[C@H](OC(=O)CC(C)(C)C(=O)O)C(C)(C)[C@@H]5CC[C@]43C)[C@@H]12 [Compound 8]", "inhibition at 1 µM (%)": 100}
{"molecule": "C=C(C)[C@@H]1CC[C@]2(C(=O)N3CCCC3c3ncc(-c4ccc(OC)cc4)[nH]3)CC[C@]3(C)[C@H](CC[C@@H]4[C@@]5(C)CC[C@H](OC(=O)[C@H]6C[C@@H](C(=O)O)C6(C)C)C(C)(C)[C@@H]5CC[C@]43C)[C@@H]12 (stereo partly shown) [Compound 15]", "inhibition at 1 µM (%)": 97}
{"molecule": "C=C(C)[C@@H]1CC[C@]2(C(=O)N3CCC[C@@H]3c3ncc(-c4ccccc4)[nH]3)CC[C@]3(C)[C@H](CC[C@@H]4[C@@]5(C)CC[C@H](OC(=O)C6CC(C(=O)O)C6(C)C)C(C)(C)[C@@H]5CC[C@]43C)[C@@H]12 (stereo partly shown) [Compound 41]", "inhibition at 1 µM (%)": 99}

Ask: Name the recorded inhibition at 1 µM of the item CC(C)(CC(=O)O[C@H]1CC[C@]2(C)[C@H]3CC[C@@H]4[C@H]5[C@H](C6(C)CC6)CC[C@]5(C(=O)N5CCC[C@@H]5c5nc(-c6ccccc6)no5)CC[C@@]4(C)[C@]3(C)CC[C@H]2C1(C)C)C(=O)O [Compound 5] in your answer.
Result: 99
